# Test system: SK-LMS-1
# PROTOCOL: relative viability vs DMSO control (72 h) (fraction); higher = more viable cells
# EXPERIMENTAL_SETUP: 0.00152 µM

SMILES_INPUT: C[C@@H](c1ccc2nccn2c1)n1nnc2ncc(-c3cnn(C)c3)nc21
relative viability: 0.975
//
SMILES_INPUT: CN1CCN(c2ccc3nc(-c4c(N)c5c(F)cccc5[nH]c4=O)[nH]c3c2)CC1
relative viability: 1.1
//
SMILES_INPUT: CC(C)(C)c1cc(NC(=O)Nc2ccc(-c3cn4c(n3)sc3cc(OCCN5CCOCC5)ccc34)cc2)no1
relative viability: 1.07

====

Entries and their relative viability
# System: VA-ES-BJ
# PROTOCOL: relative viability vs DMSO control (72 h) (fraction); higher = more viable cells
# EXPERIMENTAL_SETUP: 1.111 µM
Counter-ions that a name gives are not always drawn.

COMPOUND: C[C@]1(O)C[C@@H](c2nc(-c3ccc4ccc(-c5ccccc5)nc4c3)c3c(N)nccn32)C1
relative viability: 0.937

COMPOUND: C=CC(=O)N1CCC([C@@H]2CCNc3c(C(N)=O)c(-c4ccc(Oc5ccccc5)cc4)nn32)CC1
relative viability: 0.95

COMPOUND: CCc1cc2c(cc1N1CCC(N3CCOCC3)CC1)C(C)(C)c1[nH]c3cc(C#N)ccc3c1C2=O
relative viability: 0.912

COMPOUND: COCc1c(-c2cc3cc(C)cc(OC)c3s2)c2c(N)ncnn2c1CN1CCNC(=O)C1
relative viability: 1.02

COMPOUND: CC(=O)Nc1cccc(-n2c(=O)n(C3CC3)c(=O)c3c(Nc4ccc(I)cc4F)n(C)c(=O)c(C)c32)c1
relative viability: 0.628

COMPOUND: COc1cccc2c1C(=O)c1c(O)c3c(c(O)c1C2=O)C[C@@](O)(C(=O)CO)C[C@@H]3O[C@H]1C[C@H](N)[C@H](O)[C@H](C)O1 [Doxorubicin Hydrochloride]
relative viability: 0.189

COMPOUND: C[C@@H]1COCCN1c1cc(-c2ccnn2C)c2ccnc(-c3ccn[nH]3)c2n1
relative viability: 0.191

====

# Tested on: G401
# PROTOCOL: relative viability vs DMSO control (72 h) (fraction); higher = more viable cells
# EXPERIMENTAL_SETUP: 0.3704 µM
Param label: returns YES when relative viability < 0.8, returns NO otherwise, including exact equality.

SMILES_INPUT: C=CC(=O)N1CCC[C@@H](n2nc(-c3ccc(Oc4ccccc4)cc3)c3c(N)ncnc32)C1
ASSIGNED_CLASS: NO

SMILES_INPUT: Nc1cc(C(F)(F)F)c(-c2cc(N3CCOCC3)nc(N3CCOCC3)n2)cn1
ASSIGNED_CLASS: YES

SMILES_INPUT: C[C@@H]1COCCN1c1cc(-c2ccnn2C)c2ccnc(-c3ccn[nH]3)c2n1
ASSIGNED_CLASS: YES

SMILES_INPUT: Cc1nc(-c2cn3c(n2)-c2ccc(-c4cnn(C(C)(C)C(N)=O)c4)cc2OCC3)n(C(C)C)n1
ASSIGNED_CLASS: YES

SMILES_INPUT: Cn1cnc2c(F)c(Nc3ccc(Br)cc3F)c(C(=O)NOCCO)cc21
ASSIGNED_CLASS: NO

SMILES_INPUT: Cc1cc(C)c(/C=C2\C(=O)Nc3ccccc32)[nH]1
ASSIGNED_CLASS: NO

SMILES_INPUT: C[C@@H](c1ccc2nccn2c1)n1nnc2ncc(-c3cnn(C)c3)nc21
ASSIGNED_CLASS: NO

SMILES_INPUT: COc1c(OCCCN2CCOCC2)ccc2c1N=C(NC(=O)c1cnc(N)nc1)N1CCN=C21
ASSIGNED_CLASS: YES

SMILES_INPUT: COc1cc2nccc(Oc3ccc(NC(=O)Nc4cc(C)on4)c(Cl)c3)c2cc1OC
ASSIGNED_CLASS: NO
